- System: SR leukemia
- RUN_DESCRIPTION: NCI tumour cell line growth inhibition, 48 h

# MOLECULE, STUDY_SYSTEM, GI50
rows = [
    ("CO[C@@H]1CCN(c2nccc(Nc3cc4c(C(C)C)ccc(N5CC(CS(C)(=O)=O)[C@H]5C)c4cn3)n2)C[C@@H]1F (some centres undefined)", "SR leukemia", "2870 nM"),
    ("O=C(Nc1cccc(-n2cc(-c3ccncc3)c(-c3ccc(O)c(Cl)c3)n2)c1)c1ccc2c(c1)OCCO2", "SR leukemia", "2460 nM"),
    ("Cc1ccc(S(=O)(=O)OCC#CCOS(=O)(=O)c2ccc(C)cc2)cc1", "SR leukemia", "1270 nM"),
    ("O=S(=O)(NCCNc1nccc(-c2c(-c3ccc(F)c(O)c3)nc3sccn23)n1)c1ccc(Cl)cc1", "SR leukemia", "1870 nM"),
]
